- experiment.notes: soluble on expression in E. coli; label from the status in PepcDB or PDB records

sequence.record	soluble on expression in E. coli
MSKVPVVGIVAALLPEMGIGFQGNLPWRLAKEMKYFREVTTLTNDNSKQNVVIMGRKTWESIPQKFRPLPKRINVVVSRSFDGELRKVEDGIYHSNSLRNCLTALQSSLANENKIERIYIIGGGEIYRQSMDLADHWLITKIMPLPETTIPQMDTFLQKQELEQRFYDNSDKLVDFLPSSIQLEGRLTSQEWNGELVKGLPVQEKGYQFYFTLYTKKLEHHHHHHHH	soluble
MIYRKATEKDIAQLVELRKKQLEDEGIAPINNIDTELTHFFELSFKKNSFISWISEEDNEIIATSGVCFYKYPPSYLNPSGKVAYITNMYTKYEYRSRGIALALLKLVILEAKKRDYLFLRLHASDMGRPIYEEIGFKPFDDFMEMNLSLNRNGELEHHHHHH	soluble
GADNNKWKPLFGKNLENANYNPEVWSETDGVLGAVKDESIWTKDEYENFELDLDFKTDVGTNSGVVVYCTDTKDWIPNSVEIQIADDHCEKWGNGKPYEKCGAIYGHLGAVQDKVVKKPGEWNHMRIKCAGQHIMVILNGKKVTEMDMSKWTSGTKNPDGSDIPSWLPKPFAELPTKGFIGLQGKHGDSLIWFRNIKIRSL	soluble

----------
- experiment.notes: soluble on expression in E. coli; label from the status in PepcDB or PDB records
measured.parameter: soluble on expression in E. coli

sequence.record	experimental.result
MAGDPMADQEANAEQPMPKAEQKKPEKKAVQVQKKEDDTSAWIKTEKPAKLPILMYHSISSGNSLRVPKKEFEAHMKWLHDNGYQTLTPKEASLMLTQDKKPSEKCVLITFDDGYTDNYQDAYPVLKKYGMKATIFMIGKSIGHKHHLTEEQMKEMAQHGISIESHTIDHLELNGLTPQQQQSEMADSKKLFDNMFHQQTTIISYPVGRYNEETLKAAEKTGYQMGVTTEPGAASRDQGMYALHRVRVSPGMSGSAFGAYIESMKLEHHHHHH	soluble
MLKIGPYEFSSRLLLGTGKYPSLDVQKEAVEASGAEILTFAVRRMNIFSPEQPNFLEQLDLSKYKLLPNTAGAKTAEEAVRIARLAKASGLCDMIKVEVIGCDKTLLPDPIETLKAAEMLLEEGFIVLPYTSDDVVLAKRLEELGCHAIMPGASPIGSGQGIINPLNLSFIIEQANVPVIVDAGIGGPADAALAMELGADGVLLNTAVSGAADPVKMAKAMKLAVEAGRLGYEAGRIPKKRYASASSPTEGMSVV	not soluble
MRHRGGRGFRGWWLASTILLLVAEKPSHGYELAERLAEFGIEIPGIGHMGNIYRVLADLEESGFLSTEWDTTVSPPRKIYRITPQGKLYLREILRSLEDMKRRIETLEERIKRVLQEE	soluble
MDRFDAMQAFARVVDTGSFTKAAETLHMSRTSVTQLVQQLEARLRVRLLNRTTRKLNLTADGAAYYERVVRLLAELDDAETSLSSAALAPRGRLRIDVPSPLARLLLIPALPEFHARYPEIQIDLGVSDRLVDLIDENVDCVIRGGELRDQSLMARRVGDLQLGVYAAPAYLQRAGVPSHPRELEDSHQRIVGFLWARTGKALPYAMRRGEECLRVAGRHVLAVDDGNAYLAAGLAGLGILWLPHYMAREPLARGELLPLFEDWSLEPMPLYLAFPPNRHVSGKLRVFIEWVAELIARHAPPLHPPL	not soluble
